experiment: Rodent pharmacokinetic experiment in DBA-1J mice; type: in vivo; details: female, DBA-1J, mouse, plasma, PO dosing 100 mg/kg
measured.attribute: Cmax

### Prompt Given O=c1nc(NO)ccn1[C@@H]1O[C@H](CO)[C@H](O)C1O (stereo in doubt) [EIDD-01931] , state its recorded Cmax.
### Response 7.7 ng/mL

* * *

test: Rodent pharmacokinetic experiment in DBA-1J mice; assay type: in vivo; settings: female, DBA-1J, mouse, plasma, PO dosing 300 mg/kg
measured.attribute: Cmax (ng/mL)
Express the result in ng/mL but write the number alone.

### Prompt Given O=c1nc(NO)ccn1[C@@H]1O[C@H](CO)[C@H](O)C1O (stereo in doubt) [EIDD-01931] , state its recorded Cmax.
### Response 11.7
